system.tested: mTOR kinase (mTOR(1360-2549)+GBL) (Homo sapiens)
Construct: mTOR(1360-2549)+GBL, prepared in-house; made in house
assay.details: In vitro mTOR kinase assay (TR-FRET)
Format: biochemical
condition: read-out: activity level (Ki) in the mTOR kinase assay
endpoint: pKi
The value called pKi is obtained by taking minus log10 of the concentration in mol/L.

Some molecules with known pKi results, for comparison:
{"compound.smiles": "CCNC(=O)Nc1ccc(-c2nc(N3CCOC[C@@H]3C)c3c(cnn3C)n2)cc1", "pKi": 9.00}
{"compound.smiles": "C[C@H]1COCCN1c1nc(-c2ccc(NC(=O)NCCS(C)(=O)=O)cc2)nc2cnn(C)c12", "pKi": 6.84}
{"compound.smiles": "CCNC(=O)Nc1ccc(-c2nc(N3CCOCC3)c3c(ncn3C)n2)cc1", "pKi": 6.84}

Shifting focus to the molecule that follows.
pKi lookup needed for "CCNC(=O)Nc1ccc(-c2nc(N3CCOC[C@@H]3CC)c3c(cnn3C)n2)cc1" , thanks.
7.55

====

system.tested: PI3K-alpha (Homo sapiens)
Construct: purchased Upstate Cell Signaling Solutions
Sequence (P42336 whole entry, species assumed): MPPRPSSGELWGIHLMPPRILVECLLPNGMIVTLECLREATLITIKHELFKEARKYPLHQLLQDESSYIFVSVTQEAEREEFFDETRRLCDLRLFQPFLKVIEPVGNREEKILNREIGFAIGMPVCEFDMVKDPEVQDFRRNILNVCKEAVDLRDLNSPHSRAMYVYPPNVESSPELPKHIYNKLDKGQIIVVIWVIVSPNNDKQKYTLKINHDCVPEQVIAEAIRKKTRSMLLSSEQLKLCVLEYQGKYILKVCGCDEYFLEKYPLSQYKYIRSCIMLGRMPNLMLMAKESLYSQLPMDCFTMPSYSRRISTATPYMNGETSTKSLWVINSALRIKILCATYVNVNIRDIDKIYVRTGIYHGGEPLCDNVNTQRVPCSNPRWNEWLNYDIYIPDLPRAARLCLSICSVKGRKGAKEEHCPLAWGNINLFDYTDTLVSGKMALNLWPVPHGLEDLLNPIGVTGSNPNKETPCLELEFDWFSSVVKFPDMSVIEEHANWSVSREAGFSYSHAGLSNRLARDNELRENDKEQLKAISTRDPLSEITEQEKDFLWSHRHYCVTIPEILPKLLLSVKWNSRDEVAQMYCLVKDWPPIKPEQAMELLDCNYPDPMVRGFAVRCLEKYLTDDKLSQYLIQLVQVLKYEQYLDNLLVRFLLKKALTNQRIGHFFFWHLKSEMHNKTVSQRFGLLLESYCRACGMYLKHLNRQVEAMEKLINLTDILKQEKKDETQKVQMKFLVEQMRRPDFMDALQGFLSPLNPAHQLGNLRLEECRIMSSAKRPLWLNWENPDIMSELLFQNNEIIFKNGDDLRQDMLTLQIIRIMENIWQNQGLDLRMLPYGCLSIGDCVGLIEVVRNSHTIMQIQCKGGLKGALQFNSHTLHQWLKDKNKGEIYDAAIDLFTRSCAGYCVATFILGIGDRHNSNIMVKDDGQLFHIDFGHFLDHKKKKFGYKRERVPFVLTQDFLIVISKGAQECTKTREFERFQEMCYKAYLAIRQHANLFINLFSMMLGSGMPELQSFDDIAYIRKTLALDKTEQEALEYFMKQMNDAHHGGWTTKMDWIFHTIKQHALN
Sequence (P27986 whole entry partner, species assumed): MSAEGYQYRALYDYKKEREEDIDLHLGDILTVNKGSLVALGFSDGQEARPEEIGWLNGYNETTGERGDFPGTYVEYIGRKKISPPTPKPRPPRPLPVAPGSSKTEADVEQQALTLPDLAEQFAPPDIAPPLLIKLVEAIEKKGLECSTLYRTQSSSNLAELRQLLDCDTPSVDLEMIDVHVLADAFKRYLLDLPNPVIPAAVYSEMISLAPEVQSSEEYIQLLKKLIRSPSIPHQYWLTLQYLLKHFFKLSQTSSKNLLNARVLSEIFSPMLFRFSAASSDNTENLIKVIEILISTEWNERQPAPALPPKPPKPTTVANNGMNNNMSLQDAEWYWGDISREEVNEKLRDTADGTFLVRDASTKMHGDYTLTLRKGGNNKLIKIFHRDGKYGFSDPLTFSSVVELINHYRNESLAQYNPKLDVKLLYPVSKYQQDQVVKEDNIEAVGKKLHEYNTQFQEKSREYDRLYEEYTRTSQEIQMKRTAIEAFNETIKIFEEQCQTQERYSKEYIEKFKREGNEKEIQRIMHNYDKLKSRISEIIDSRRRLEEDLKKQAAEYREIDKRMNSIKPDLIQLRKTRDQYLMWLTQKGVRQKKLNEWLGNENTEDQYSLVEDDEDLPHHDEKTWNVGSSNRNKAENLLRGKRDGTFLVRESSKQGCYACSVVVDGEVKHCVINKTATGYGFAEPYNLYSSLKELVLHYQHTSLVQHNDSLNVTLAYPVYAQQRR
Format: biochemical
endpoint: selectivity for mTOR kinase over related PI3 kinase (PI3K-alpha) (×)
# number only, unit × dropped from output

Solved cases (3 shown):
{"molecule": "CCNC(=O)Nc1ccc(-c2nc(N3CCOC[C@@H]3C)c3c(ncn3CC)n2)cc1", "val": 250}
{"molecule": "CCNC(=O)Nc1ccc(-c2nc(N3CCOC[C@@H]3C)c3ncn(C)c3n2)cc1 [reference compound]", "val": 29}
{"molecule": "CCNC(=O)Nc1ccc(-c2nc(N3CCOC[C@@H]3C)c3ncn(CC)c3n2)cc1 [reference compound]", "val": 45}

--- query ---
# query: selectivity for mTOR kinase over related PI3 kinase (PI3K-alpha) of entry "CCNC(=O)Nc1ccc(-c2nc(N3CCOC[C@@H]3C)c3c(cnn3C)n2)cc1"
1250

====

system.tested: mTOR kinase (mTOR(1360-2549)+GBL) (Homo sapiens)
Construct: mTOR(1360-2549)+GBL, prepared in-house; made in house
assay.details: In vitro mTOR kinase assay (TR-FRET)
Format: biochemical
condition: recombinant mTOR+GBL, 8 uM ATP, Ki apparent; read-out: activity level (Ki) in the mTOR kinase assay
Entries and their pKi values follow.
# pKi: negative log10 of molar concentration; output just the value

Known results for compounds:
{"compound.smiles": "CCNC(=O)Nc1ccc(-c2nc(N3CCOC[C@@H]3C)c3c(ncn3CC)n2)cc1", "endpoint": "pKi", "val": 7.40}
{"compound.smiles": "CCNC(=O)Nc1ccc(-c2nc(N3CCOC[C@@H]3CC)c3c(ncn3C)n2)cc1", "endpoint": "pKi", "val": 8.40}
{"compound.smiles": "CCNC(=O)Nc1ccc(-c2nc(N3CCCOCC3)c3c(ncn3C)n2)cc1", "endpoint": "pKi", "val": 6.92}
{"compound.smiles": "CCNC(=O)Nc1ccc(-c2nc(N3CCOC[C@@H]3C)c3c(n2)nc(C(C)(C)O)n3C)cc1", "endpoint": "pKi", "val": 7.52}

Continue with the next compound.
Any idea what pKi came out for "CCNC(=O)Nc1ccc(-c2nc(N3CCOC[C@@H]3CC)c3c(n2)c(C)nn3C)cc1" on mTOR kinase (mTOR(1360-2549)+GBL) (Homo sapiens)?
8.70

====

system.tested: mTOR kinase (mTOR(1360-2549)+GBL) (Homo sapiens, UniProt P42345)
Construct: mTOR(1360-2549)+GBL, prepared in-house; made in house
Sequence (P42345 1360-2549): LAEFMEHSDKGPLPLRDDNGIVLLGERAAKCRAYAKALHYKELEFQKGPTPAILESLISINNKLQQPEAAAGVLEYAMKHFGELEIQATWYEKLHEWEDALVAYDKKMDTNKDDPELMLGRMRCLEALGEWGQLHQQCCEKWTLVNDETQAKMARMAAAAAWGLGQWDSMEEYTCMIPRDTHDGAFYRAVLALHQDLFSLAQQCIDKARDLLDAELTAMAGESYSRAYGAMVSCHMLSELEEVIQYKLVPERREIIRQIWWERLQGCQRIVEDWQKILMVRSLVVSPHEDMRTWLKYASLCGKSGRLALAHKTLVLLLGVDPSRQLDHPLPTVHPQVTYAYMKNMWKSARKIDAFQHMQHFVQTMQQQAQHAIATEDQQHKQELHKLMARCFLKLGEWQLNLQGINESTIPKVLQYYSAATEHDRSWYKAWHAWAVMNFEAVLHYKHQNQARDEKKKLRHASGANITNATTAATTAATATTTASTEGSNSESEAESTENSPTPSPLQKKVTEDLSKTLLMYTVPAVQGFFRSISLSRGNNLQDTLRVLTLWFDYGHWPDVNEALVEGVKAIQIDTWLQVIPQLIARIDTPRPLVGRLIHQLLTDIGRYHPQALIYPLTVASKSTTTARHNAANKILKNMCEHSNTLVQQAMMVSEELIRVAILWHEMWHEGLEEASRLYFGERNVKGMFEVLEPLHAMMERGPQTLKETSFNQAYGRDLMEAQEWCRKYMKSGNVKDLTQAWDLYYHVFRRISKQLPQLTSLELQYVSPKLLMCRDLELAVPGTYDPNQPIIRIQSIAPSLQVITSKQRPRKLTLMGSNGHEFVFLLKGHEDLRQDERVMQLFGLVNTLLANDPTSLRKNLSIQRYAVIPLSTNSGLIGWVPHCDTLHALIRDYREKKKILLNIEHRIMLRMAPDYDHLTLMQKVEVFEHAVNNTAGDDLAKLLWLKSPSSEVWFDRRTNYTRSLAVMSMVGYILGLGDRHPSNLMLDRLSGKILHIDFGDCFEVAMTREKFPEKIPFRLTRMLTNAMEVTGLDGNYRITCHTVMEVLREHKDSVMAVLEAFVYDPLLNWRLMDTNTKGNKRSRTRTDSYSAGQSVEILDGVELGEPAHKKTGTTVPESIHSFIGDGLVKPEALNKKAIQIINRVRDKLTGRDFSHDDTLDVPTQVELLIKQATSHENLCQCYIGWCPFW
Sequence (Q9BVC4 whole entry partner): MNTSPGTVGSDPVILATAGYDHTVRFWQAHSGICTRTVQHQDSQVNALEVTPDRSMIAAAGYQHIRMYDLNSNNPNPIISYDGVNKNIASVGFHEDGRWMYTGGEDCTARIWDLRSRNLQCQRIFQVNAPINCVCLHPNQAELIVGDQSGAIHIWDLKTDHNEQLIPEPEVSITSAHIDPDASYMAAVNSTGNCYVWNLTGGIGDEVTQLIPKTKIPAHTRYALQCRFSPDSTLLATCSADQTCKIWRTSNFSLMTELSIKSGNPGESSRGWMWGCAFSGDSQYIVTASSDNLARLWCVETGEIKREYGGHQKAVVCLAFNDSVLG
assay.details: In vitro mTOR kinase assay (TR-FRET)
Type: biochemical
condition: read-out: activity level (Ki) in the mTOR kinase assay
endpoint: pKi
Here pKi is given on a logarithmic scale as minus log10 of the concentration in mol/L.

{"compound": "CCNC(=O)Nc1ccc(-c2nc(N3C[C@@H]4C[C@H]3CO4)c3c(cnn3C)n2)cc1 [Compound 109]", "endpoint": "pKi", "val": 8.10}

Recall the recorded pKi for CCCCc1nc2nc(-c3ccc(NC(=O)NCC)cc3)nc(N3CCOC[C@@H]3C)c2n1C [Compound 107] with mTOR kinase (mTOR(1360-2549)+GBL) (Homo sapiens, UniProt P42345) and state it.
7.28

Any idea what pKi came out for C[C@H]1COCCN1c1nc(-c2ccc(NC(=O)NC3COC3)cc2)nc2cnn(C)c12 [Compound 113] on mTOR kinase (mTOR(1360-2549)+GBL) (Homo sapiens, UniProt P42345)?
7.41

====

System: AKT serine-473 phosphorylation in EGF-stimulated PC-3 cells
assay.details: In vitro phospho-AKT serine 473 cellular assay
Type: cell-based
condition: Homo sapiens; PC-3 cells stimulated with EGF; read-out: EC50 activity level, inhibition of S473 AKT phosphorylation
Procedure: The PC-3 cell line is maintained in RPMI1640 media supplemented with 10% FBS, 2 mM Glutamine, and 10 mM HEPES pH 7.4 at 37° C. in a 5% CO2 humidified incubator. Cells are seeded in 384-well plates at 7,000 cells/well in 50 μA growth media. […] Binding the tagged antibody to the captured protein allow detection on a MSD reader. EC50 values are calculated using MDL Assay Explorer 3.0.1.8 fitting a sigmoidal curve with a variable slope.
// values below are reported pEC50
Just the number, please; pEC50 means minus log10 of the concentration in mol/L.

{"molecule": "CCNC(=O)Nc1ccc(-c2nc(N3CCOC[C@@H]3C)c3c(ncn3CC)n2)cc1 [Compound 106]", "pEC50": 6.29}

As a next step, examine the molecule that follows.
Quick one: pEC50 of CCNC(=O)Nc1ccc(-c2nc(N3CCOC[C@@H]3C)c3c(n2)nc(C(C)(C)O)n3C)cc1 [Compound 108] ?
5.46
